# Test system: MT4
# TEST_SUMMARY: Anti-HIV-1 activity against Y181C strain, in MT-4 cells by the MTT method
# Format: functional, cell-based
# PROTOCOL_CONDITIONS: Homo sapiens
MEASURED_QUANTITY: pIC50
Please express pIC50 as -log10 of the molar concentration.

Look over these answered cases.
>>> print(df.to_string())
                              line_notation  measured
0  CCOCn1c(Cc2cc(C)cc(C)c2)c(C(C)C)c(=O)[nH]c1=O      6.74
1           CCc1c(C)nc(O)c(I)c1Oc1cccc(C)c1      7.29

In the following, a different molecule is considered.
Summary for this molecule, CCc1c(C)nc(O)c(I)c1Oc1ccccc1 : pIC50 is 6.50

###

# Tested on: MT4
# TEST_SUMMARY: Anti-HIV-1 activity against K103N+[…] strain was determined in MT-4 cells by the MTT method
# Assay type: functional, cell-based
# PROTOCOL_CONDITIONS: Homo sapiens
pIC50: −log10 of the molar value.
MEASURED_QUANTITY: pIC50

// below: answered molecules
>>> print(df.to_string())
                                   molecule  measured
0  CC(C)Nc1cccnc1N1CCN(C(=O)c2cc3cc(NS(C)(=O)=O)ccc3[nH]2)CC1 [DELAVIRDINE]    < 5.00
1    CCc1c(C)[nH]c(=O)c(I)c1Oc1cc(C)cc(C)c1      7.70

Then there is this molecule:
# lookup: O=C1Nc2ccc(Cl)cc2[C@@](C#CC2CC2)(C(F)(F)F)O1 [EFAVIRENZ] on MT4, pIC50 = < 5.00

Data credit: ChEMBL document CHEMBL1136472
